Each entry below lists one item and its recorded OD450 nm value.
- measurement_target: T1, monkey GPC3-His protein (monkey)
- T1 construct: Bought protein; also called monkey GPC3 protein
- test_protocol: ELISA, monkey GPC3-His coated; antibody 0.53 nM
// response body must contain only the number

>>> endpoint_value("hAb001H2L1b (antibody, human IgG1, V domains shown, Humanized F2.169.2, H2+L1b) VH: EVQLVESGGGLVQPGGSLRLSCAASGFSFNTNAMNWVRQAPGKGLEWVGRIRSKSNNYATYYADSVKDRFTISRDDSKSSLYLQMNSLKTEDTAVYYCVRDGYYVLFAYWGQGTLVTVSS VL: DIVMTQTPLSLPVTPGEPASISCRFSQSIVNSNANTYLEWFLQKPGQSPQLLIYKVSNRFSGVPDRFSGSGSGTDFTLKISRVEAEDVGVYYCFQGSHVPFTFGQGTKLEIK")
2.54
>>> endpoint_value("hAb006LH3L1b (antibody, human IgG1, V domains shown, Humanized F3.38.7, H3+L1b) VH: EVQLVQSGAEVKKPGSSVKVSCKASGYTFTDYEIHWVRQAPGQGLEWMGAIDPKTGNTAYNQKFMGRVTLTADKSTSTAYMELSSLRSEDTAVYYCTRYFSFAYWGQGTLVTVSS VL: DIVMTQTPLSLPVTPGEPASISCRSSQTFVHSNANTYLQWYLQKPGQSPQLLIYKVSNRFSGVPDRFSGSGSGTDFTLKISRVEAEDVGVYYCFQGSHVPYTFGQGTKLEIK")
2.56
>>> endpoint_value("hAb001H1aL1 (antibody, human IgG1, V domains shown, Humanized F2.169.2, H1a+L1) VH: EVQLVESGGGLVQPGGSLRLSCAASGFSFNTNAMNWVRQAPGKGLEWVGRIRSKSNNYATYYADSVKGRFTISRDDSKNSLYLQMNSLKTEDTAVYYCVRDGYYVLFAYWGQGTLVTVSS VL: DIVMTQTPLSLPVTPGEPASISCRFSQSIVNSNGNTYLEWFLQKPGQSPQLLIYKVSNRFSGVPDRFSGSGSGTDFTLKISRVEAEDVGVYYCFQGSHVPFTFGQGTKLEIK")
2.36
>>> endpoint_value("hAb001H1aL1b (antibody, human IgG1, V domains shown, Humanized F2.169.2, H1a+L1b) VH: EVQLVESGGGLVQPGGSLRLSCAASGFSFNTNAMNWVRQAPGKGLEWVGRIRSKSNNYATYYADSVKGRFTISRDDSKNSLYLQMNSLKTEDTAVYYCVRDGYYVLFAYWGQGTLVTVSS VL: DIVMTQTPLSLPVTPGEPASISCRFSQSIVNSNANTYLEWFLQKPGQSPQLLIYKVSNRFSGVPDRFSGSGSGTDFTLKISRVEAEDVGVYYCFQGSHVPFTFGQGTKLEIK")
2.39
>>> endpoint_value("hAb001H2L1 (antibody, human IgG1, V domains shown, Humanized F2.169.2, H2+L1) VH: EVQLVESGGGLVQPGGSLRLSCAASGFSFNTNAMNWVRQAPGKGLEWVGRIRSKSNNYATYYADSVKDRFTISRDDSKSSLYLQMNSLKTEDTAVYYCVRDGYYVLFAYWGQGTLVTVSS VL: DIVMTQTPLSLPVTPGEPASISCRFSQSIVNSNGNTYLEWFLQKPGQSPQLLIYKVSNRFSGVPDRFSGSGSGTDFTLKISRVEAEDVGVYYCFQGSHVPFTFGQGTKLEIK")
2.47
>>> endpoint_value("hAb001H1aL1a (antibody, human IgG1, V domains shown, Humanized F2.169.2, H1a+L1a) VH: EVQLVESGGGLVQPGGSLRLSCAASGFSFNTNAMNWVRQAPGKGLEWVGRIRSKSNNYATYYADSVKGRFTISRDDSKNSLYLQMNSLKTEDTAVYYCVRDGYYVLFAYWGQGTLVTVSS VL: DIVMTQTPLSLPVTPGEPASISCRFSQSIVNSDGNTYLEWFLQKPGQSPQLLIYKVSNRFSGVPDRFSGSGSGTDFTLKISRVEAEDVGVYYCFQGSHVPFTFGQGTKLEIK")
2.19

Moving on to another binder below.
// query For hAb001H1L1a (antibody, human IgG1, V domains shown, Humanized F2.169.2, H1+L1a) VH: EVQLVESGGGLVQPGGSLRLSCAASGFSFNTNAMNWVRQAPGKGLEWVGRIRSKSNNYATYYADSVKDRFTISRDDSKNSLYLQMNSLKTEDTAVYYCVRDGYYVLFAYWGQGTLVTVSS VL: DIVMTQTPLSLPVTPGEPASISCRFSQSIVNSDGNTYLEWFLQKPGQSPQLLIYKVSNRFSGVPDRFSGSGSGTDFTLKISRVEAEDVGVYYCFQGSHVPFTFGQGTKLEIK , write its OD450 nm.
// result 2.08
